Reported Ht by item:
- Organism: Rattus norvegicus
- RUN_DESCRIPTION: Open TG-GATES - Regimen: Daily Repeat
- Assay type: toxicity, organism-based, Sprague-Dawley
- Parameters: regimen Daily Repeat, gender Male, age 6 weeks
- APPLIED_CONDITIONS: in vivo, po, 0 mg/kg, […], tissue Blood, route gavage, dose level Control, time 14 day
MEASURED_ENDPOINT: Ht

molecule="COc1ccc([C@@H]2Sc3ccccc3N(CCN(C)C)C(=O)[C@@H]2OC(C)=O)cc1 [DILTIAZEM]" result=44%
molecule="CC(S)C(=O)NCC(=O)O (stereo not drawn) [TIOPRONIN]" result=40.4%
molecule="O=C(O)c1ccccc1Nc1ccccc1 [FENAMIC ACID]" result=42.3%

###

- Species: Rattus norvegicus
- RUN_DESCRIPTION: Open TG-GATES - Regimen: Single
- Format: toxicity, organism-based, Sprague-Dawley
- Design: regimen Single, gender Male, age 6 weeks
- APPLIED_CONDITIONS: in vivo, po, 0 mg/kg, 9 h, tissue Blood, route gavage, dose level Control
MEASURED_ENDPOINT: Ht (%)

compound="COc1ccc([C@@H]2Sc3ccccc3N(CCN(C)C)C(=O)[C@@H]2OC(C)=O)cc1 [DILTIAZEM]" unit_info=% numeric_readout=41.1
compound="CC(=O)[C@@]1(O)CC[C@H]2[C@@H]3C=C(Cl)C4=CC(=O)CC[C@]4(C)[C@H]3CC[C@@]21C [CHLORMADINONE]" unit_info=% numeric_readout=39.8
compound="CN(C/C=C/C#CC(C)(C)C)Cc1cccc2ccccc12 [TERBINAFINE]" unit_info=% numeric_readout=39.8
compound="CN(CCOc1ccc(CC2SC(=O)NC2=O)cc1)c1ccccn1.O=C(O)/C=C\\C(=O)O (centres undefined) [ROSIGLITAZONE MALEATE]" unit_info=% numeric_readout=39.1

###

Quick reference for Bas among some molecules
- Species: Rattus norvegicus
- RUN_DESCRIPTION: Open TG-GATES - Regimen: Daily Repeat
- Type: toxicity, organism-based, Sprague-Dawley
- Set-up: regimen Daily Repeat, gender Male, age 6 weeks
- APPLIED_CONDITIONS: in vivo, po, 1000 mg/kg, […], tissue Blood, route gavage, dose level High, time 28 day
MEASURED_ENDPOINT: Bas (%)

molecule="CCCCNC(=O)NS(=O)(=O)c1ccc(C)cc1 [TOLBUTAMIDE]" numeric_readout=0.2
molecule="O=C(O)c1ccccc1Nc1ccccc1 [FENAMIC ACID]" numeric_readout=0
molecule="CC(S)C(=O)NCC(=O)O (centres undefined) [TIOPRONIN]" numeric_readout=0
molecule="CC(=O)[C@@]1(O)CC[C@H]2[C@@H]3C=C(Cl)C4=CC(=O)CC[C@]4(C)[C@H]3CC[C@@]21C [CHLORMADINONE]" numeric_readout=0

###

- Species: Rattus norvegicus
- RUN_DESCRIPTION: Open TG-GATES - Regimen: Daily Repeat
- Format: toxicity, organism-based, Sprague-Dawley
- Design: regimen Daily Repeat, gender Male, age 6 weeks
- APPLIED_CONDITIONS: in vivo, po, 1000 mg/kg, 72 h, tissue Plasma, route gavage, dose level High, time 3 day
MEASURED_ENDPOINT: IP (mg/dL)

compound="CC(S)C(=O)NCC(=O)O (centres undefined)" unit_info=mg/dL numeric_readout=7.8
compound=O=C(O)c1ccccc1Nc1ccccc1 unit_info=mg/dL numeric_readout=6.6
compound=CC(=O)[C@@]1(O)CC[C@H]2[C@@H]3C=C(Cl)C4=CC(=O)CC[C@]4(C)[C@H]3CC[C@@]21C unit_info=mg/dL numeric_readout=7.7
compound="CCCCNC(=O)NS(=O)(=O)c1ccc(C)cc1 [TOLBUTAMIDE]" unit_info=mg/dL numeric_readout=7.9

###

- Organism: Rattus norvegicus
- RUN_DESCRIPTION: Open TG-GATES - Regimen: Daily Repeat
- Assay type: toxicity, organism-based, Sprague-Dawley
- Set-up: regimen Daily Repeat, gender Male, age 6 weeks
- APPLIED_CONDITIONS: in vivo, po, 100 mg/kg, […], tissue Blood, route gavage, dose level Low, time 28 day
MEASURED_ENDPOINT: Plat (x10_4/uL)

compound="CC(=O)[C@@]1(O)CC[C@H]2[C@@H]3C=C(Cl)C4=CC(=O)CC[C@]4(C)[C@H]3CC[C@@]21C [CHLORMADINONE]" numeric_readout=95
compound="CCCCNC(=O)NS(=O)(=O)c1ccc(C)cc1 [TOLBUTAMIDE]" numeric_readout=102.7
compound="O=C(O)c1ccccc1Nc1ccccc1 [FENAMIC ACID]" numeric_readout=103.7
compound="CC(S)C(=O)NCC(=O)O (centres undefined) [TIOPRONIN]" numeric_readout=94

###

- Species on record: Rattus norvegicus
- RUN_DESCRIPTION: Open TG-GATES - Regimen: Daily Repeat
- Format: toxicity, organism-based, Sprague-Dawley
- Parameters: regimen Daily Repeat, gender Male, age 6 weeks
- APPLIED_CONDITIONS: in vivo, po, 300 mg/kg, 72 h, tissue Blood, route gavage, dose level Middle, time 3 day
MEASURED_ENDPOINT: PT (s)

compound="O=C(O)c1ccccc1Nc1ccccc1 [FENAMIC ACID]" measured_endpoint=PT numeric_readout=14
compound="CCCCNC(=O)NS(=O)(=O)c1ccc(C)cc1 [TOLBUTAMIDE]" measured_endpoint=PT numeric_readout=13
compound="CC(=O)[C@@]1(O)CC[C@H]2[C@@H]3C=C(Cl)C4=CC(=O)CC[C@]4(C)[C@H]3CC[C@@]21C [CHLORMADINONE]" measured_endpoint=PT numeric_readout=14.8
compound="CC(S)C(=O)NCC(=O)O (centres undefined) [TIOPRONIN]" measured_endpoint=PT numeric_readout=15.2

###

- Species on record: Rattus norvegicus
- RUN_DESCRIPTION: Open TG-GATES - Regimen: Daily Repeat
- Type: toxicity, organism-based, Sprague-Dawley
- Design: regimen Daily Repeat, gender Male, age 6 weeks
- APPLIED_CONDITIONS: in vivo, po, 300 mg/kg, […], tissue Blood, route gavage, dose level Middle, time 14 day
Recorded Mono for the following compounds
MEASURED_ENDPOINT: Mono (%)

compound=O=C(O)c1ccccc1Nc1ccccc1 measured_endpoint=Mono numeric_readout=2.2
compound="CC(S)C(=O)NCC(=O)O (centres undefined)" measured_endpoint=Mono numeric_readout=2.2
compound=CC(=O)[C@@]1(O)CC[C@H]2[C@@H]3C=C(Cl)C4=CC(=O)CC[C@]4(C)[C@H]3CC[C@@]21C measured_endpoint=Mono numeric_readout=2.6
compound="CCCCNC(=O)NS(=O)(=O)c1ccc(C)cc1 [TOLBUTAMIDE]" measured_endpoint=Mono numeric_readout=1.8

###

compounds and their reported KIDNEY_R
- Species: Rattus norvegicus
- RUN_DESCRIPTION: Open TG-GATES - Regimen: Single
- Assay type: toxicity, organism-based, Sprague-Dawley
- Parameters: regimen Single, gender Male, age 6 weeks
- APPLIED_CONDITIONS: in vivo, po, 0 mg/kg, 9 h, tissue Kidney, route gavage, dose level Control
MEASURED_ENDPOINT: KIDNEY_R (g)

compound=Nc1ccc(Cc2ccc(N)cc2)cc1 unit_info=g numeric_readout=0.9
compound="CCCCNC(=O)NS(=O)(=O)c1ccc(C)cc1 [TOLBUTAMIDE]" unit_info=g numeric_readout=1
compound=CN(C/C=C/C#CC(C)(C)C)Cc1cccc2ccccc12 unit_info=g numeric_readout=1
compound=CN(C)CCCN1c2ccccc2Sc2ccc(Cl)cc21 unit_info=g numeric_readout=1
compound=O=C(O)c1ccccc1Nc1ccccc1 unit_info=g numeric_readout=0.9
compound=CCO unit_info=g numeric_readout=0.9
compound=O=c1ccc2ccccc2o1 unit_info=g numeric_readout=0.9
compound=COc1ccc([C@@H]2Sc3ccccc3N(CCN(C)C)C(=O)[C@@H]2OC(C)=O)cc1 unit_info=g numeric_readout=0.8
compound=CC(=O)[C@@]1(O)CC[C@H]2[C@@H]3C=C(Cl)C4=CC(=O)CC[C@]4(C)[C@H]3CC[C@@]21C unit_info=g numeric_readout=1
compound=C=C[C@H]1C[N@@]2CC[C@H]1C[C@@H]2[C@@H](O)c1ccnc2ccc(OC)cc12 unit_info=g numeric_readout=1
compound=COc1cc2ncnc(Nc3ccc(F)c(Cl)c3)c2cc1OCCCN1CCOCC1 unit_info=g numeric_readout=0.9
compound="CC(S)C(=O)NCC(=O)O (configuration not stated)" unit_info=g numeric_readout=0.9

###

Parameter K: see the listing below.
- Species: Rattus norvegicus
- RUN_DESCRIPTION: Open TG-GATES - Regimen: Daily Repeat
- Format: toxicity, organism-based, Sprague-Dawley
- Set-up: regimen Daily Repeat, gender Male, age 6 weeks
- APPLIED_CONDITIONS: in vivo, po, 0 mg/kg, […], tissue Plasma, route gavage, dose level Control, time 14 day
MEASURED_ENDPOINT: K

molecule="O=c1ccc2ccccc2o1 [COUMARIN]" result="4.8 meq/L"
molecule="CC(S)C(=O)NCC(=O)O (stereo not drawn) [TIOPRONIN]" result="4.5 meq/L"
molecule="CN(C/C=C/C#CC(C)(C)C)Cc1cccc2ccccc12 [TERBINAFINE]" result="3.7 meq/L"
molecule=CCN(CC)C(=S)SSC(=S)N(CC)CC result="4.4 meq/L"
molecule="CN(CCOc1ccc(CC2SC(=O)NC2=O)cc1)c1ccccn1.O=C(O)/C=C\\C(=O)O (stereo not drawn) [ROSIGLITAZONE MALEATE]" result="4.5 meq/L"
molecule="NS(=O)(=O)c1cc(C(=O)O)c(NCc2ccco2)cc1Cl [FUROSEMIDE]" result="4.1 meq/L"
molecule="O=C(O)c1ccccc1Nc1ccccc1 [FENAMIC ACID]" result="4 meq/L"
molecule="CCO [ALCOHOL]" result="4.4 meq/L"
